In this section, each of the compounds is paired with its reported pIC50.
Molecular target: Voltage-gated inwardly rectifying potassium channel KCNH2 (Homo sapiens, UniProt Q12809)
Sequence (Q12809 whole entry): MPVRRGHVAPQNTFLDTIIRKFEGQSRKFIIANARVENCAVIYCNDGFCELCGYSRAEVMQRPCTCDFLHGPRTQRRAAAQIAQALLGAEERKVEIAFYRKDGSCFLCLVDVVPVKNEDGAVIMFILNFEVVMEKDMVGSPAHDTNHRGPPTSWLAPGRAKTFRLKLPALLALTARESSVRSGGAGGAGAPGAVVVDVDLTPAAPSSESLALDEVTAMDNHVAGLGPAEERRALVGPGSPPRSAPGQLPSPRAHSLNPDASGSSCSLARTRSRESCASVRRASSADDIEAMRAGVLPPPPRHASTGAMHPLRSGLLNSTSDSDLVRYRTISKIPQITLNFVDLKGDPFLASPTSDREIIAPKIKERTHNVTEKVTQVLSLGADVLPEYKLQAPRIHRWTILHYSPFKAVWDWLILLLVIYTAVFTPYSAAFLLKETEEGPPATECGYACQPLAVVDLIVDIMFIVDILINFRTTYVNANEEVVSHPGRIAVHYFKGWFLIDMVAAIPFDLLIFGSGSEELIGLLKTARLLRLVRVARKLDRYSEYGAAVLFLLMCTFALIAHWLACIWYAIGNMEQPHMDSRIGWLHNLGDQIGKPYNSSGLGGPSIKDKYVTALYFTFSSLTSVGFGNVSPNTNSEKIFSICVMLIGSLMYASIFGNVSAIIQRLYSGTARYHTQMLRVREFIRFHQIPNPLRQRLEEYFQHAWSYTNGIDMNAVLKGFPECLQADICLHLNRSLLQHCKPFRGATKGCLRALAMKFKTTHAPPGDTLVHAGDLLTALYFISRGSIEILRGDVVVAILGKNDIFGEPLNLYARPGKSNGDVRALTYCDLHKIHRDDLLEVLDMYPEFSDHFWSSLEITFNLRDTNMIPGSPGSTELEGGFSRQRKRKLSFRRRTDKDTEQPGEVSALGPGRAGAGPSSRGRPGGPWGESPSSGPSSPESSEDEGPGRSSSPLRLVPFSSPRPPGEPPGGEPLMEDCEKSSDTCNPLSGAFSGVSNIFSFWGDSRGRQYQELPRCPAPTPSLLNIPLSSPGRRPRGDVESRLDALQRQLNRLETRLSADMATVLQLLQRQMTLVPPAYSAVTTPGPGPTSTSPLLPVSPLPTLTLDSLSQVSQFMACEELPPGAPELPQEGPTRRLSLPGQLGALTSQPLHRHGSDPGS
pIC50: −log10 of the molar value.

# chemicalStructure, pIC50
data = [
    ("Cc1ncccc1Oc1ncc(Cl)cc1NS(=O)(=O)c1ccc(Cl)c(Cl)c1", "< 4.50"),
]

Query string: Item O=C(NCCO)c1ccccc1Oc1ncc(Cl)cc1NS(=O)(=O)c1ccc(Cl)c(Cl)c1 has what recorded pIC50?
Result string: < 4.20

Query string: Follow-up item: O=C(O)c1ccccc1Oc1ncc(Cl)cc1NS(=O)(=O)c1ccc(Cl)c(Cl)c1
Result string: < 4.50

# credit: ChEMBL document CHEMBL1177762
